Tested on: K4 kissing-loop RNA reporter
protocol: apparent KD of K4 kissing-loop reporter; higher = weaker reporter binding
run parameters: Eterna round: R107; input ligand: none
measurement kind: apparent KD of K4 kissing-loop reporter (nM)
One number for each entry, in nM.

Known apparent KD of K4 kissing-loop reporter results, listed for orientation:
sequence record | quantitative result
CCAUUCUGUUACGAUACCAGUCAAAUAUAUUUGAUCAAUACCCUCGCCGAGUGAUGUUCGGACCCUUGGCAGCGUCUGGGACAGG [ccdfmullin] | 710
GCGUUAGUACUCGAUACCAGACCUCUAGUAGUGAUGUUGCUUGGCGAAGGCCUCGAACGAGUCCCUUGGCAGCGAGGAAAGAGGA [theeternabot_sameState_KL_Theo_B_4] | 584
UGACUACAUCCUAGUGAUGUUUAGGAUAUGUAGGAUAUGCUGAUAAGCAGAAGGACAGAAGGAAGUGAUGUUCUUAAAGUAGUCU [FmnAX 29 #DoubleAptamer #Double K4 #SwitchBubble #StaticStem] | 1050

Now look at this one.
Item UCUGAAGGUGGAGGAUAUUGAUUGAAUCUUGGUCAGGAGUGAUGUUCCGGGAAGCCUUGGAUUCAUCGAGAAGGCCAAGGAUAGU [#10 K4 FMN B Same State] has what recorded apparent KD of K4 kissing-loop reporter? 243

---

Test system: K4 kissing-loop RNA reporter;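 further: bound reporter read as fluorescence of individual clusters on recovered sequencing chips by microscopy, with normalized cluster intensities fitted with a binding model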
protocol: apparent KD of K4 kissing-loop reporter; higher = weaker reporter binding
run parameters: Eterna round: R107; input ligand: theophylline 20 uM
What apparent KD of K4 kissing-loop reporter was measured for each of the following?
Answers are plain numbers, in nM.

Known apparent KD of K4 kissing-loop reporter results, listed for orientation:
sequence record | units | apparent KD of K4 kissing-loop reporter
AGUGAUGUGGGAAGGAGCGGUAGAUGAGUUCAGUGAUGUUGAAGUGAUGCUGUAGUGAUGUGCCAGGUAGGUCGCCUAGAUGUUA [KL-XARG B24] | nM | 130
CUCGAGUGAUGUUCGAUUAUGUAUACAGAUACCAGUGAAUUUUAACACCCUUGGCAGCUGGUAGAAUCUUUGUAAUUUUAACUAG [JR_ExcTheophyA_Sub002] | nM | 230
CAUAGGAAACUAUGUUUCUCUCUGACUGAAGGAGCGCGUGAAAACGCAGGUAGGUCGCAGAAUUUAACAGAGAGUGAUGUUCUCA [Ex Arginine A K4 12] | nM | 633
CUCGUGGGUUUGAGAGGGCUUGUGGGAAGAUAGGAUAUCUAGGGAGGGAGAAGGAUCUAUAGAAUAUAGUGAUGUUAUAUAUGGG [#05 K4 FMN A Same State] | nM | 154
ACUUAUUGUGUCGAUACCAGCAGGUGACGACGCCUCAUGGCUGACGAGUGAUGUUCGACUUGCCCUUGGCAGCGACAUACGCCGG [theeternabot_sameState_KL_Theo_B_12] | nM | 365
CCGGGCGGCCGAAGGAGCGGGCGGACCCGAGUGAUGUUCGGGUGGACCGUGAGGUCCGGUGCCCAGGUAGGUCGCGGUUCCGCCC [#2 Same State - Arginine B Attempt #5 (HarryS)] | nM | 118
UGUAAUGAGUGAUGUUCAUGUAGUAAGGAUACCAGUAAUUCAAAAUGCCCUUGGCAGCUUAGUUCUAUCUAUAGUUGGGUAGUGG [Theophilline A V4 (+5U)] | nM | 206
AAAACUCAUGGCUUAUAUCCGUGUCUCGAAGGAGCGUACAGCGGUACAGGUAGGUCGCGAGACAUGAGUGAUGUUCAUGUGUAAA [KL-XArg-A6 #analogue] | nM | 169
AAAUCGUUCAGAAGGAGCGUGGUAUAAUCAUUAAUAUUUAUUACGAGUGAUGUUCGUAAUUCACAGGUAGGUCGCUGAUCGAUAA [JR_SSArginiB_Sub006] | nM | 99.8

Lookup: apparent KD of K4 kissing-loop reporter / K4 kissing-loop RNA reporter / UGAUACCAGACGGCCGCCACUAGACCAGUCAAAGACUGGAAGUGAUGUUUGAGGAGUGAUGUUCCUAGGACCGGGUCUGGUAUCU [TrypBX 3 #Palindromic #SwitchBubble #StaticStem] 89

Recorded values, source the supplement of paper PMC9170038.
